- SUBJECT_OF_TEST: 5-hydroxytryptamine receptor 2A (Rattus norvegicus, UniProt P14842)
- Sequence (P14842 whole entry): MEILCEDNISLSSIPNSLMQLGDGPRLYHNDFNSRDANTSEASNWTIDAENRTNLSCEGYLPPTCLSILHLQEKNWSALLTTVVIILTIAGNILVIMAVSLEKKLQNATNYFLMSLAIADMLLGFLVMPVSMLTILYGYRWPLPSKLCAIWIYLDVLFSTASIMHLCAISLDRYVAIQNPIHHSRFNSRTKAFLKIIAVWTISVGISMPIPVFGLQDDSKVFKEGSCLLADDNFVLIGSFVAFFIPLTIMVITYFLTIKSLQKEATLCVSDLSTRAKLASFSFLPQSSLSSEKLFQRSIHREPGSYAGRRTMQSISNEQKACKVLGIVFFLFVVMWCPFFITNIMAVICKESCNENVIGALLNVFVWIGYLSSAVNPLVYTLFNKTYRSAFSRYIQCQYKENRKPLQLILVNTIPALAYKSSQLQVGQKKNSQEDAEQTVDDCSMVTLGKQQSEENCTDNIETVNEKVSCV
MEASUREMENT_LABEL: pKi
# pKi: negative log10 of molar concentration; output just the value

[ask] Identify pKi associated with the compound O=C1C2C3C=CC(C3)C2C(=O)N1OCCN1CCN(c2cccc3ccccc23)CC1 (configuration not stated)
[reply] 6.95

[ask] Identify pKi associated with the compound O=c1c2ccccc2nnn1OCCN1CCN(c2cccc3ccccc23)CC1
[reply] 5.88

----------
- Test system: PC-3
- ASSAY_PROTOCOL: Cell cycle arrest in human PC3 cells assessed as accumulation at S phase at 15 uM after 48 hrs using propidium iodide staining by flow cytometry (reference value: 38.16 %)
- Type: functional
MEASUREMENT_LABEL: Activity
Give the value; after it, write the unit.

[ask] Identify Activity associated with the compound O=c1c2ccccc2nnn1CCCN1CCN(c2cccc3ccccc23)CC1
[reply] 33.58%

[ask] Identify Activity associated with the compound Br.CCCN(CCC)[C@H]1CCc2cccc(O)c2C1
[reply] 37.31%

[ask] Identify Activity associated with the compound O=c1c2ccccc2nnn1CCN1CCN(c2cccc3ccccc23)CC1
[reply] 34.56%

[ask] Identify Activity associated with the compound Br.COc1ccccc1N1CCN(CCCCN2C(=O)c3ccccc3C2=O)CC1
[reply] 35.59%
